Tested on: 3T3-L1 cell line
Experiment: SRB assay, antiproliferative activity against 3T3-L1
Format: cell-based, mouse
Details: SRB, tested concentration range 1–100 µg/mL
measured.metric: cytotoxic / antiproliferative effect against 3T3-L1 (in words)

CCCCCCCCCCCOc1ccc([C@@H]2CC(=O)c3c(O)cc(OCCCCCCCCCCC)cc3O2)cc1 [Compound 10a, 7,4’-di-O-undecylnaringenin] | no effect
CCCCCCCOc1ccc([C@@H]2CC(=O)c3c(O)cc(OCCCCCCC)cc3O2)cc1 [Compound 4a, 7,4’-di-O-heptylnaringenin] | no effect
CCCCCCCCOc1ccc([C@@H]2CC(=O)c3c(O)cc(OCCCCCCCC)cc3O2)cc1 [Compound 6a, 7,4’-di-O-octylnaringenin] | no effect

FYI, the data here is from paper PMC10294875.
